These data points were gathered from patent US20260001914A1.

target: phosphorylation levels of ERK1/2 in AsPC-1 (homozygous KRAS-G12D) cells (Homo sapiens, UniProt P01116, G12D); assay: Cellular phospho-ERK assay in AsPC-1 cells (Alpha Screen), assay medium without fetal bovine serum; details: phospho-ERK AlphaScreen, 18 h
Sequence (P01116 1-186 G12D): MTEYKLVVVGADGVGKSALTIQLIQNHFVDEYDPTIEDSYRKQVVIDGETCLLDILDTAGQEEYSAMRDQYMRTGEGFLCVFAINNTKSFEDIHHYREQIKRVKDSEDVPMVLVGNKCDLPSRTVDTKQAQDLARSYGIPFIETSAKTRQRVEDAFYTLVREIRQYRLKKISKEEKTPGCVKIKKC
*1 amine or outer side, *2 acyl side, *3 side chain or, on linkers, in order; H or OH if unused. Where a SMILES comes first, the peptide text is derived from it. [ ]: non-standard residue; d: D form. Ala(1-bicyclo(1.1.1)pentyl) = N[C@@H](CC12CC(C1)C2)C(=O)O; Ala(pyrimidin-5-yl) = N[C@@H](Cc1cncnc1)C(=O)O; Phe(2-F) = N[C@@H](Cc1ccccc1F)C(=O)O; X1 = O=C(C12CC(CN[*:1])(C1)C2)[*:2]; NMeF = CN[C@@H](Cc1ccccc1)C(=O)O; PhLac = O=C(O)[C@@H](O)Cc1ccccc1; Cba = N[C@@H](CC1CCC1)C(=O)O; hLeu = CC(C)CC[C@H](N)C(=O)O; NMeA = CN[C@@H](C)C(=O)O
Property label: EC50
# output: number + unit

Prompt: Let me know recorded EC50 for CC(C)CC[C@@H]1NC(=O)[C@H](Cc2ccccc2F)NC(=O)[C@H](CC2CCC2)NC(=O)[C@H](Cc2cncnc2)NC(=O)[C@H](C)N(C)C(=O)[C@H](Cc2ccccc2)OC(=O)C23CC(CNC(=O)[C@H](Cc4ccccc4)N(C)C1=O)(C2)C3 [compound 134] (cyclo([Cba][Phe(2-F)][hLeu][NMeF][X1][PhLac][NMeA][Ala(pyrimidin-5-yl)])) , thanks.
Completion: 330 nM

Prompt: State its EC50: CC(C)CC[C@@H]1NC(=O)[C@H](Cc2ccccc2F)NC(=O)[C@H](CC23CC(C2)C3)NC(=O)[C@H](Cc2cncnc2)NC(=O)[C@H](C)N(C)C(=O)[C@H](Cc2ccccc2)OC(=O)C23CC(CNC(=O)[C@H](Cc4ccccc4)N(C)C1=O)(C2)C3 [compound 272] (cyclo([NMeA][Ala(pyrimidin-5-yl)][Ala(1-bicyclo(1.1.1)pentyl)][Phe(2-F)][hLeu][NMeF][X1][PhLac]))
Completion: 2950 nM

* * *

target: phosphorylation levels of ERK1/2 in AsPC-1 (homozygous KRAS-G12D) cells (Homo sapiens, UniProt P01116, G12D); assay: Cellular phospho-ERK assay in AsPC-1 cells (Alpha Screen), assay medium without fetal bovine serum; conditions: phospho-ERK AlphaScreen, 18 h;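 also: signal taken as phospho-ERK over total ERK per well, both detected in one multiplex bead assay, EC50 from four-parameter logistic fit of dose-response curves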
*1 amine or outer side, *2 acyl side, *3 side chain or, on linkers, in order; H or OH if unused. Where a SMILES comes first, the peptide text is derived from it. Bridges are numbered along the chain shown (N, C = ends). [ ]: non-standard residue; d: D form. Ala(pyrimidin-5-yl) = N[C@@H](Cc1cncnc1)C(=O)O; NMePhe(3-Me) = CN[C@@H](Cc1cccc(C)c1)C(=O)O; X25 = O=C([C@H](Cc1ccc(F)nc1)N[*:1])[*:2]; NMeAha = CN[C@@H](CCN=[N+]=[N-])C(=O)O; Phe(2-F) = N[C@@H](Cc1ccccc1F)C(=O)O; X31 = O=C([C@H](CCC1CC1)N[*:1])[*:2]; NMe3Pal = CN[C@@H](Cc1cccnc1)C(=O)O; X1 = O=C(C12CC(CN[*:1])(C1)C2)[*:2]; Ala(cPr) = N[C@@H](CC1CC1)C(=O)O; PhLac = O=C(O)[C@@H](O)Cc1ccccc1; 3Pal = N[C@@H](Cc1cccnc1)C(=O)O; αMeC = C[C@](N)(CS)C(=O)O; NMeA = CN[C@@H](C)C(=O)O; Nle = CCCC[C@H](N)C(=O)O
Consider the following compounds; for each one, report its pEC50.
pEC50 here: minus log base 10 of the concentration, concentration in moles per litre.

Prompt: Please list pEC50 recorded for the compound Cc1cccc(C[C@H]2C(=O)NCC34CC(C3)(C4)C(=O)O[C@@H](Cc3ccccc3)C(=O)N(C)[C@@H](C)C(=O)N[C@@H](Cc3cncnc3)C(=O)N[C@@H](CC3CC3)C(=O)N[C@@H](Cc3ccccc3F)C(=O)N[C@@H](CCC3CC3)C(=O)N2C)c1 [compound 334] (cyclo([Ala(cPr)][Phe(2-F)][X31][NMePhe(3-Me)][X1][PhLac][NMeA][Ala(pyrimidin-5-yl)]))
Completion: 6.65

Prompt: Return reported pEC50. Input compound: CCCC[C@@H]1NC(=O)[C@H](Cc2cncnc2)NC(=O)[C@H](CCN=[N+]=[N-])N(C)C(=O)[C@H](Cc2ccccc2)OC(=O)C23CC(CNC(=O)[C@H](Cc4cccnc4)N(C)C(=O)[C@H](CCCC)NC(=O)[C@H](Cc4ccccc4F)NC1=O)(C2)C3 [compound 242] (cyclo([NMe3Pal][X1][PhLac][NMeAha][Ala(pyrimidin-5-yl)][Nle][Phe(2-F)][Nle]))
Completion: 4.93

Prompt: Give reported pEC50 value for CCCC[C@@H]1NC(=O)[C@H](Cc2ccc(F)nc2)NC(=O)[C@H](C)N(C)C(=O)[C@H](Cc2ccccc2)OC(=O)C23CC(CNC(=O)[C@H](Cc4cccnc4)N(C)C(=O)[C@H](CCCC)NC(=O)[C@H](Cc4ccccc4F)NC1=O)(C2)C3 [compound 235] (cyclo([NMe3Pal][X1][PhLac][NMeA][X25][Nle][Phe(2-F)][Nle]))
Completion: 4.93

Prompt: Identify measured pEC50 corresponding to CCCC[C@@H]1NC(=O)[C@H](Cc2cccnc2)NC(=O)[C@H](C)N(C)C(=O)[C@H](Cc2ccccc2)OC(=O)CSC[C@@](C)(C(N)=O)NC(=O)[C@H](Cc2cccnc2)N(C)C(=O)[C@H](CCCC)NC(=O)[C@H](Cc2ccccc2F)NC1=O [compound 398] ({CH2CO}-[PhLac][NMeA][3Pal][Nle][Phe(2-F)][Nle][NMe3Pal][αMeC]-NH2; thioether N-8)
Completion: 4.39
